Molecular target: human β3 (Homo sapiens)
Construct: And then full length of human β3 gene was cloned using this fragment as a probe; expressed in transfected cells; host or cells: CHO cells (Chinese hamster ovary), pcDNA3 vector
Sequence (P13945 whole entry, the tested form may be a part): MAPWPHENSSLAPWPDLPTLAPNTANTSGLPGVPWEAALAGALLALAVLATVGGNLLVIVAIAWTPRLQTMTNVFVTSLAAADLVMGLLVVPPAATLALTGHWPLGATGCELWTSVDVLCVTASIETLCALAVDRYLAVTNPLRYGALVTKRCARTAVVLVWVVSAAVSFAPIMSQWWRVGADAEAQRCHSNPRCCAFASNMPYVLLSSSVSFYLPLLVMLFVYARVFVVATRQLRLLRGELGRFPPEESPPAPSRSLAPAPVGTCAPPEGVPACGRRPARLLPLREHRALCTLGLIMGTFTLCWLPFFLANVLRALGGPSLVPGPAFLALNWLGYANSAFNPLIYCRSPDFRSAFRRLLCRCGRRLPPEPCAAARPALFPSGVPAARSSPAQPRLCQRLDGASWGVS
Experiment: Human β3-agonist activity (cAMP in CHO cells transfected with human β3 gene)
Type: cell-based
Conditions: CHO; read-out: Intrinsic activity (%)
Counter-ions that a name gives are not always drawn.
Entries and their Emax values follow.
measurement_label: Emax (%)

compound: CS(=O)(=O)Nc1cc(C(O)CNCCOc2ccc3c(c2)oc2ccccc23)ccc1Cl (racemic) [Example 57, Hydrochloride]
display_unit: %
experimental_result: 68
//
compound: OC(CNCCOc1ccc2c(c1)[nH]c1ccccc12)c1ccccc1 (racemic) [Example 31, Hydrochloride]
display_unit: %
experimental_result: 100
//
compound: CS(=O)(=O)Nc1cc([C@@H](O)CNCCOc2ccc3c(c2)[nH]c2ccccc23)ccc1F [Example 77, Hydrochloride]
display_unit: %
experimental_result: 100
//
compound: CC(COc1ccc2c(c1)[nH]c1ccccc12)NCC(O)c1cccc(NS(C)(=O)=O)c1 (racemic) [Example 11, Hydrochloride]
display_unit: %
experimental_result: 95
//
compound: CS(=O)(=O)Nc1cc([C@H](O)CNCCOc2ccc3c(c2)[nH]c2ccccc23)ccc1O [Example 13, Hydrochloride]
display_unit: %
experimental_result: 110
//
compound: O=[N+]([O-])c1cc(C(O)CNCCOc2ccc3c(c2)[nH]c2ccccc23)ccc1O (racemic) [Example 18, Hydrochloride]
display_unit: %
experimental_result: 90
//
compound: CS(=O)(=O)Nc1cc(C(O)CNCCOc2ccc3c(c2)oc2ccccc23)ccc1F (racemic) [Example 55, Hydrochloride]
display_unit: %
experimental_result: 76
